Cited source for all entries: patent US20240246954A1

# SYSTEM_TESTED: Avi-KRAS G12D (1-169) GppNHp/RAF1 RBD-3×FLAG (52-151) (Homo sapiens, UniProt P01116, G12D)
# Construct: Avi-KRAS G12D (1-169) GppNHp
# Sequence (P01116 1-169 isoform P01116-2 G12D limits assumed): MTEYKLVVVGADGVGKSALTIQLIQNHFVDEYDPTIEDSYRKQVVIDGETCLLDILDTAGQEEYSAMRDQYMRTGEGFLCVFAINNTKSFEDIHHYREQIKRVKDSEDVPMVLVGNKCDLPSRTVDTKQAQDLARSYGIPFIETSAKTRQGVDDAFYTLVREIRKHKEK
# METHOD: HTRF Raf1-KRAS G12D-GppNHp disruption assay
# Assay type: biochemical
# CONDITION_CONTEXT: 1 h incubation
pIC50: −log10 of the molar value.
Measured pIC50, listed per entry.

[
  {
    "COMPOUND": "Nc1nc2c(-c3c(Cl)cc4c(N5CCCNCC5)ncnc4c3F)ccc(F)c2s1",
    "pIC50": "4.52 to 5.00"
  },
  {
    "COMPOUND": "Nc1nc2c(-c3cc4nc(OC[C@@]56CCCN5C[C@H](F)C6)nc(N5CC6CCC(C5)N6)c4cc3C(F)(F)F)ccc(F)c2s1",
    "pIC50": "6.00 to 7.00"
  },
  {
    "COMPOUND": "N#Cc1c(N)sc2c(F)ccc(-c3c(C(F)(F)F)cc4c(N5CC[C@@H]6CNCC[C@@H]65)nc(OC[C@@]56CCCN5C[C@H](F)C6)nc4c3F)c12",
    "pIC50": "6.00 to 7.00"
  },
  {
    "COMPOUND": "CC(C)N(c1nc(OC[C@@H]2CCCN2C)nc2c(F)c(-c3ccc(F)c4sc(N)nc34)c(Cl)cc12)C1CNC1",
    "pIC50": "4.52 to 5.00"
  },
  {
    "COMPOUND": "N#Cc1cc2c(N3CC4CCC(C3)N4)nc(OC[C@@]34CCCN3C[C@H](F)C4)nc2c(F)c1-c1ccc(F)c2sc(N)nc12",
    "pIC50": "6.00 to 7.00"
  },
  {
    "COMPOUND": "Fc1c(-c2ccc(F)c3scnc23)c(C(F)(F)F)cc2c(N3CC4CCC(C3)N4)nc(OCC34CCCN3CCC4)nc12",
    "pIC50": "4.52 to 5.00"
  },
  {
    "COMPOUND": "Nc1nc2c(-c3c(-c4ccoc4)cc4c(N5CC6CC(C5)N6)nc(OCC56CCCN5CCC6)nc4c3F)ccc(F)c2s1",
    "pIC50": "5.00 to 6.00"
  },
  {
    "COMPOUND": "Nc1nc2c(-c3c(C(F)(F)F)cc4c(N5CCC6(CNC6)C5)nc(OCC56CCCN5CCC6)nc4c3F)ccc(F)c2s1",
    "pIC50": "6.00 to 7.00"
  },
  {
    "COMPOUND": "CO[C@@H]1C[C@@H](COc2nc(NC3CNC3)c3cc(C(F)(F)F)c(-c4ccc(F)c5sc(N)nc45)c(F)c3n2)N(C)C1",
    "pIC50": "5.00 to 6.00"
  },
  {
    "COMPOUND": "CN1CCC[C@H]1COc1nc(NC2CN(C(=O)CN)C2)c2cc(Cl)c(-c3ccc(F)c4sc(N)nc34)c(F)c2n1",
    "pIC50": "5.00 to 6.00"
  },
  {
    "COMPOUND": "CO[C@H]1CN2CCC[C@@]2(COc2nc(N3CC4CCC(C3)N4)c3cc(C(F)(F)F)c(-c4ccc(F)c5sc(N)nc45)c(F)c3n2)C1",
    "pIC50": "6.00 to 7.00"
  },
  {
    "COMPOUND": "Nc1nc2c(-c3c(C(F)(F)F)cc4c(N5CCC6(CCNC6)C5)nc(OCC56CCCN5CCC6)nc4c3F)ccc(F)c2s1 (centres unmarked)",
    "pIC50": "6.00 to 7.00"
  },
  {
    "COMPOUND": "Nc1nc2c(-c3c(C(F)(F)F)cc4c(N5CC6CCC(C5)N6)nc(OC[C@@]56CCCN5C[C@H](F)C6)nc4c3F)ccc(F)c2o1",
    "pIC50": "6.00 to 7.00"
  },
  {
    "COMPOUND": "CN(c1nc(OCC23CCCN2CC(C)(C)C3)nc2c(F)c(-c3ccc(F)c4sc(N)nc34)c(C(F)(F)F)cc12)C1CNC1 (centres unmarked)",
    "pIC50": "4.52 to 5.00"
  },
  {
    "COMPOUND": "CN(c1nc(OC[C@@]23CCCN2C[C@H](F)C3)nc2c(F)c(-c3ccc(F)c4sc(N)c(C#N)c34)c(F)cc12)[C@@H]1CCNC1",
    "pIC50": "6.00 to 7.00"
  },
  {
    "COMPOUND": "Nc1nc2c(-c3c(Cl)cc4c(N5CCNCC5)nc(OCC56CCCN5CCC6)nc4c3F)ccc(F)c2s1",
    "pIC50": "5.00 to 6.00"
  },
  {
    "COMPOUND": "Nc1nc2c(-c3c(C(F)(F)F)cc4c(NC5CNC5)nc(OCC56CCCN5CCC6)nc4c3F)ccc(F)c2o1",
    "pIC50": "6.00 to 7.00"
  },
  {
    "COMPOUND": "Nc1nc2c(-c3c(Cl)cc4c(NC5CNC5)nc(OCC56CCCN5CCC6)nc4c3F)ccc(F)c2s1",
    "pIC50": "5.00 to 6.00"
  },
  {
    "COMPOUND": "Nc1nc2c(-c3c(Cl)cc4c(NC5CNC5)nc(O)nc4c3F)ccc(F)c2s1",
    "pIC50": "4.52 to 5.00"
  },
  {
    "COMPOUND": "CCN1[C@@H]2CC[C@H]1CN(c1nc(OC[C@@]34CCCN3C[C@H](F)C4)nc3c(F)c(-c4ccc(F)c5sc(N)nc45)c(C(F)(F)F)cc13)C2",
    "pIC50": "5.00 to 6.00"
  },
  {
    "COMPOUND": "CN1C[C@H](F)C[C@H]1COc1nc(N2C[C@H]3NCC[C@H]32)c2cc(C(F)(F)F)c(-c3ccc(F)c4sc(N)nc34)c(F)c2n1",
    "pIC50": "5.00 to 6.00"
  },
  {
    "COMPOUND": "CN(c1nc(OCC2(CN3CCOCC3)CC2)nc2c(F)c(-c3ccc(F)c4sc(N)nc34)c(C(F)(F)F)cc12)[C@@H]1CCNC1",
    "pIC50": "6.00 to 7.00"
  },
  {
    "COMPOUND": "C[C@H]1C[C@@H](N(C)c2nc(OC[C@@]34CCCN3C[C@H](F)C4)nc3c(F)c(-c4ccc(F)c5sc(N)nc45)c(C(F)(F)F)cc23)CN1",
    "pIC50": "6.00 to 7.00"
  },
  {
    "COMPOUND": "Nc1nc2c(-c3c(-c4ccoc4)cc4c(N5CC6CCC(C5)N6)nc(OC[C@@]56CCCN5C[C@H](F)C6)nc4c3F)ccc(F)c2s1",
    "pIC50": "6.00 to 7.00"
  },
  {
    "COMPOUND": "Cc1cc2c(N3CCNCC3)nc(OC[C@@H]3CCCN3C)nc2c(F)c1-c1ccc(F)c2sc(N)nc12",
    "pIC50": "4.52 to 5.00"
  },
  {
    "COMPOUND": "N#CCc1cc2c(NC3CNC3)nc(OCC34CCCN3CCC4)nc2c(F)c1-c1ccc(F)c2sc(N)nc12",
    "pIC50": "5.00 to 6.00"
  }
]

====

Measured IC50, listed per entry.
# SYSTEM_TESTED: Avi-KRAS G12D (1-169) GppNHp/RAF1 RBD-3×FLAG (52-151) (Homo sapiens, UniProt P01116, G12D)
# Construct: Avi-KRAS G12D (1-169) GppNHp
# METHOD: HTRF Raf1-KRAS G12D-GppNHp disruption assay
# CONDITION_CONTEXT: 1 h incubation
MEASUREMENT_KIND: IC50

[
  {
    "COMPOUND": "Nc1nc2c(-c3c(C(F)(F)F)cc4c(N5CCC6(CCNC6)CC5)nc(OCC56CCCN5CCC6)nc4c3F)ccc(F)c2s1",
    "SYSTEM_TESTED": "Avi-KRAS G12D (1-169) GppNHp/RAF1 RBD-3×FLAG (52-151) (Homo sapiens, UniProt P01116, G12D)",
    "MEASUREMENT_KIND": "IC50",
    "MEASUREMENT": "0.1 to 1 µM"
  },
  {
    "COMPOUND": "CN(c1nc(OCC23CCCN2CCC3)nc2c(F)c(-c3ccc(F)c4sc(N)nc34)c(C(F)(F)F)cc12)[C@@H]1CCN(C(N)=O)C1 (atropisomer, axis not shown) [Compound 279]",
    "SYSTEM_TESTED": "Avi-KRAS G12D (1-169) GppNHp/RAF1 RBD-3×FLAG (52-151) (Homo sapiens, UniProt P01116, G12D)",
    "MEASUREMENT_KIND": "IC50",
    "MEASUREMENT": "10 to 30 µM"
  },
  {
    "COMPOUND": "Nc1nc2c(-c3c(C(F)(F)F)cc4c(N[C@H]5CCC[C@@H](N)C5)nc(OCC56CCCN5CCC6)nc4c3F)ccc(F)c2s1",
    "SYSTEM_TESTED": "Avi-KRAS G12D (1-169) GppNHp/RAF1 RBD-3×FLAG (52-151) (Homo sapiens, UniProt P01116, G12D)",
    "MEASUREMENT_KIND": "IC50",
    "MEASUREMENT": "10 to 30 µM"
  },
  {
    "COMPOUND": "CN1CCC(c2nc(N3CCNCC3)c3cc(Cl)c(-c4ccc(F)c5sc(N)nc45)c(F)c3n2)CC1",
    "SYSTEM_TESTED": "Avi-KRAS G12D (1-169) GppNHp/RAF1 RBD-3×FLAG (52-151) (Homo sapiens, UniProt P01116, G12D)",
    "MEASUREMENT_KIND": "IC50",
    "MEASUREMENT": "10 to 30 µM"
  },
  {
    "COMPOUND": "Nc1nc2c(-c3c(C(F)F)cc4c(N5CCNCC5)nc(OCC56CCCN5CCC6)nc4c3F)ccc(F)c2s1",
    "SYSTEM_TESTED": "Avi-KRAS G12D (1-169) GppNHp/RAF1 RBD-3×FLAG (52-151) (Homo sapiens, UniProt P01116, G12D)",
    "MEASUREMENT_KIND": "IC50",
    "MEASUREMENT": "1 to 10 µM"
  }
]
